# measurement target: hPPARα (Homo sapiens, UniProt Q07869)
# Sequence (Q07869 239-466 limits assumed): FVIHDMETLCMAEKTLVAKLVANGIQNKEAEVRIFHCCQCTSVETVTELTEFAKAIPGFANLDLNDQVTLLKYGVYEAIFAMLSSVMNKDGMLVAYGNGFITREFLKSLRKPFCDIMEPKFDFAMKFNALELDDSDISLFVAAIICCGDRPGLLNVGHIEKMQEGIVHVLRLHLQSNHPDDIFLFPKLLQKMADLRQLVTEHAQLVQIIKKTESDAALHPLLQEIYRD
# assay protocol: cell-based human PPAR-GAL4 chimera luciferase reporter assay in CV-1 cells (PPARα)
# cond: CV-1 cells transiently transfected with PPAR LBD-GAL4 chimera and luciferase reporter, 24 hours treatment; read-out: hPPAPα (EC50)
reported property: EC50

Observe how each entry below is paired with its result.
# smiles notation, measurement target, EC50
records = [
    ("CCCCN(CCCOc1cccc(CC(=O)O)c1)c1ccccn1", "hPPARα (Homo sapiens, UniProt Q07869)", "> 100 µM"),
    ("CCCCN(CCCOc1c(C(=O)O)ccc2ccccc12)c1nc2ccccc2o1", "hPPARα (Homo sapiens, UniProt Q07869)", "> 100 µM"),
    ("CCCCN(CCCOc1c(C(=O)O)ccc2ccccc12)c1ncc(CC)cn1", "hPPARα (Homo sapiens, UniProt Q07869)", "> 100 µM"),
    ("O=C(O)Cc1cccc(OCCCN(Cc2ccc(C(F)(F)F)cc2C(F)(F)F)c2nc3ccccc3o2)c1", "hPPARα (Homo sapiens, UniProt Q07869)", "> 100 µM"),
    ("O=C(O)Cc1cccc(OCCCN(Cc2ccc(C(F)(F)F)cc2)c2nc3ccccc3s2)c1", "hPPARα (Homo sapiens, UniProt Q07869)", "< 1 µM"),
]

EC50 reported for this compound CCCCN(CCCOc1cccc(CC(=O)O)c1)c1nc2ccccc2s1 : 1 to 100 µM

Item: O=C(O)c1ccc2ccccc2c1OCCCN(Cc1ccc(C(F)(F)F)cc1C(F)(F)F)c1nc2ccccc2o1 | EC50: > 100 µM

Lab note: measured EC50 of O=C(O)c1ccc2ccccc2c1OCCCN(Cc1ccc(C(F)(F)F)cc1)c1nc2ccccc2s1 was > 100 µM

For CCc1cnc(N(CCCOc2c(C(=O)O)ccc3ccccc23)Cc2ccc(C(F)(F)F)cc2C(F)(F)F)nc1 the compound record lists EC50 as 1 to 100 µM

----------
# measurement target: hPPARγ (Homo sapiens, UniProt P37231)
# Sequence (P37231 238-503 limits assumed): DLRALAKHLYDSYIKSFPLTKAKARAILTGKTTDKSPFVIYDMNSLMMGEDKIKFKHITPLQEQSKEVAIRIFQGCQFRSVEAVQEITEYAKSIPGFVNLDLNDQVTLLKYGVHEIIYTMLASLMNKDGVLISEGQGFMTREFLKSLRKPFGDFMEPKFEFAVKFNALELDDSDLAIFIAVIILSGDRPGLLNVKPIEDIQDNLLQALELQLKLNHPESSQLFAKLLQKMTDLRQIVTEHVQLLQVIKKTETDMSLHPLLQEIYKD
# assay protocol: cell-based human PPAR-GAL4 chimera luciferase reporter assay in CV-1 cells (PPARγ)
# cond: CV-1 cells transiently transfected with PPAR LBD-GAL4 chimera and luciferase reporter, 24 hours treatment
pEC50: −log10 of the molar value.
A collection of molecules and their measured pEC50

Known results for molecules:
# smiles notation, pEC50
data = [
    ("CCCCN(CCCOc1c(C(=O)O)ccc2ccccc12)c1ccccn1", "> 6.00"),
    ("O=C(O)Cc1cccc(OCCCN(Cc2ccc(C(F)(F)F)cc2C(F)(F)F)c2nc3ccccc3s2)c1", "> 6.00"),
    ("O=C(O)Cc1cccc(OCCCN(Cc2ccc(C(F)(F)F)cc2)c2nc3ccccc3s2)c1", "> 6.00"),
    ("CCCCN(CCCOc1cccc(CC(=O)O)c1)c1ncc(CC)cn1", "> 6.00"),
    ("CCc1cnc(N(CCCOc2cccc(CC(=O)O)c2)Cc2ccc(C(F)(F)F)cc2C(F)(F)F)nc1", "> 6.00"),
]

# pEC50 of O=C(O)c1ccc2ccccc2c1OCCCN(Cc1ccc(C(F)(F)F)cc1)c1nc2ccccc2s1 = > 6.00

The molecule listed as O=C(O)Cc1cccc(OCCCN(Cc2ccc(C(F)(F)F)cc2C(F)(F)F)c2nc3ccccc3o2)c1 has a reported pEC50 of > 6.00

Note to self: pEC50 recorded for CCCCN(CCCOc1cccc(CC(=O)O)c1)c1nc2ccccc2o1 was < 4.00

Please fill in: pEC50 reported for CCc1cnc(N(CCCOc2c(C(=O)O)ccc3ccccc23)Cc2ccc(C(F)(F)F)cc2C(F)(F)F)nc1 = > 6.00

Field pEC50 (entry CCCCN(CCCOc1cccc(CC(=O)O)c1)c1ccccn1 ) reads > 6.00

The recorded pEC50 for O=C(O)Cc1cccc(OCCCN(Cc2ccc(C(F)(F)F)cc2C(F)(F)F)c2ccccn2)c1 is > 6.00

Lookup result for CCCCN(CCCOc1c(C(=O)O)ccc2ccccc12)c1ncc(CC)cn1 ; measured pEC50: > 6.00

Documented pEC50 of O=C(O)c1ccc2ccccc2c1OCCCN(Cc1ccc(C(F)(F)F)cc1C(F)(F)F)c1nc2ccccc2o1 : > 6.00

Reported pEC50 for CCCCN(CCCOc1cccc(CC(=O)O)c1)c1nc2ccccc2s1 was < 4.00

// pEC50 value for CCc1cnc(N(CCCOc2ccc3cc(C(=O)O)ccc3c2)Cc2ccc(C(F)(F)F)cc2C(F)(F)F)nc1 : < 4.00

// field: pEC50; key: CCCCN(CCCOc1c(C(=O)O)ccc2ccccc12)c1nc2ccccc2s1 ; value = 4.00 to 6.00

The reported pEC50 of the molecule CCCCN(CCCOc1c(C(=O)O)ccc2ccccc12)c1nc2ccccc2o1 was 4.00 to 6.00

The measured pEC50 associated with CCc1cnc(N(CCCOc2cc3ccccc3cc2C(=O)O)Cc2ccc(C(F)(F)F)cc2C(F)(F)F)nc1 reads > 6.00
